Molecular target: Aurora kinase A (Homo sapiens)
Sequence (O14965 whole entry): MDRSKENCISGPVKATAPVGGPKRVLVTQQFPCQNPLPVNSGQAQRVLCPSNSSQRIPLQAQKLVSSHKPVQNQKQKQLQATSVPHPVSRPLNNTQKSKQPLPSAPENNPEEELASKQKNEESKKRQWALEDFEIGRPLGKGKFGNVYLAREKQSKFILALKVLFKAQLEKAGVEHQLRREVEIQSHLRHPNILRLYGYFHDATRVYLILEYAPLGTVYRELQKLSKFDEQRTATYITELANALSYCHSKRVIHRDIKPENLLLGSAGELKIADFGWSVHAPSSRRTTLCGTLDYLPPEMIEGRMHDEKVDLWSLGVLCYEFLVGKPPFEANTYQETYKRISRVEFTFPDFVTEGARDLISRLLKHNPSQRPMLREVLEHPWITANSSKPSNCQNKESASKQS
Experiment: Binding affinity to purified recombinant full-length Aurora A (unknown origin) by fluorescence polarisation/anisotropy based equilibrium binding assay
readout_name: Kd
Don't forget the unit after the value.

Could you tell me which Kd is on file for "CN(C)c1ccc2c(-c3ccc(C(=O)NCCCOCCOCCOCCCNC(=O)[C@@H](Cc4ccc(N=[N+]=[N-])cc4)NC(=O)CCNC(=O)[C@]4(Cc5cccc(Nc6nccs6)n5)CC[C@@H](Oc5cccc(Cl)c5F)CC4)cc3C(=O)O)c3ccc(=[N+](C)C)cc-3oc2c1" ?
2.2 nM

Same lookup for "CN(C)c1ccc2c(-c3ccc(C(=O)NCCCC[C@H](NC(=O)[C@H](Cc4ccccc4)NC(=O)[C@H](Cc4ccccc4)NC(=O)CCCNC(=O)[C@]4(Cc5cccc(Nc6nccs6)n5)CC[C@@H](Oc5cccc(Cl)c5F)CC4)C(N)=O)cc3C(=O)O)c3ccc(=[N+](C)C)cc-3oc2c1" , please.
0.44 nM

Same lookup for CCN1/C(=C/C=C/C2=[N+](CC)c3ccc(S(=O)(=O)O)cc3C2(C)C)C(C)(CCCC(=O)NCCCC[C@@H](NC(=O)[C@H](CCCNC(=N)N)NC(=O)[C@H](CCCNC(=N)N)NC(=O)[C@H](CCCNC(=N)N)NC(=O)[C@H](CCCNC(=N)N)NC(=O)[C@H](CCCNC(=N)N)NC(=O)[C@H](CCCNC(=N)N)NC(=O)[C@@H](Cc2ccc(N=[N+]=[N-])cc2)NC(=O)[C@@H](Cc2ccc(N=[N+]=[N-])cc2)NC(=O)CCNC(=O)[C@]2(Cc3cccc(Nc4nccs4)n3)CC[C@@H](Oc3cccc(Cl)c3F)CC2)C(N)=O)c2cc(S(=O)(=O)O)ccc21 (stereo partly drawn) , please.
6.1 nM

---

Target: Aurora kinase A (Homo sapiens, UniProt O14965)
Sequence (O14965 whole entry): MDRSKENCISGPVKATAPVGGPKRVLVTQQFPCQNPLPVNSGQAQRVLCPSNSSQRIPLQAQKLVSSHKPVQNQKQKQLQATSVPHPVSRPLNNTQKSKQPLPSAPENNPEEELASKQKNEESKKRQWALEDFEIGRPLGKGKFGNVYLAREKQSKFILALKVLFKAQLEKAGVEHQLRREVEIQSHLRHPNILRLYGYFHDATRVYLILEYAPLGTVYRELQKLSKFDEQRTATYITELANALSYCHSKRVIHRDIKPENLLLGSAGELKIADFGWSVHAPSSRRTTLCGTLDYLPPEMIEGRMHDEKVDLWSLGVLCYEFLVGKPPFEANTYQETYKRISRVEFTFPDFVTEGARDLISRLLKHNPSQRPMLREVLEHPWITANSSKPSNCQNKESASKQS
Assay: Binding affinity to purified recombinant full-length Aurora A (unknown origin) by fluorescence polarisation/anisotropy based equilibrium binding assay
Would you mind telling me the reported pKd of each entry?
Value format note: pKd is -log10 of concentration (mol/L); just state the number.

Could you tell me which pKd is on file for CCN1/C(=C/C=C/C2=[N+](CC)c3ccc(S(=O)(=O)O)cc3C2(C)C)C(C)(CCCC(=O)NCCCC[C@@H](NC(=O)[C@@H](CCCNC(=N)N)NC(=O)[C@@H](CCCNC(=N)N)NC(=O)[C@@H](CCCNC(=N)N)NC(=O)[C@@H](CCCNC(=N)N)NC(=O)[C@@H](CCCNC(=N)N)NC(=O)[C@@H](CCCNC(=N)N)NC(=O)[C@H](Cc2ccc(N=[N+]=[N-])cc2)NC(=O)[C@H](Cc2ccc(N=[N+]=[N-])cc2)NC(=O)CCNC(=O)[C@]2(Cc3cccc(Nc4nccs4)n3)CC[C@@H](Oc3cccc(Cl)c3F)CC2)C(N)=O)c2cc(S(=O)(=O)O)ccc21 (stereo partly drawn) ?
8.24

Same lookup for CCN1/C(=C/C=C/C2=[N+](CC)c3ccc(S(=O)(=O)O)cc3C2(C)C)C(C)(CCCC(=O)NCCCC[C@@H](NC(=O)[C@@H](CCCNC(=N)N)NC(=O)[C@@H](CCCNC(=N)N)NC(=O)[C@@H](CCCNC(=N)N)NC(=O)[C@@H](CCCNC(=N)N)NC(=O)[C@@H](CCCNC(=N)N)NC(=O)[C@@H](CCCNC(=N)N)NC(=O)[C@@H](Cc2ccc(C(=O)c3ccccc3)cc2)NC(=O)[C@@H](Cc2ccc(C(=O)c3ccccc3)cc2)NC(=O)CCCNC(=O)[C@]2(Cc3cccc(Nc4nccs4)n3)CC[C@@H](Oc3cccc(Cl)c3F)CC2)C(N)=O)c2cc(S(=O)(=O)O)ccc21 (stereo partly drawn) , please.
8.19

Same lookup for "CN(C)c1ccc2c(-c3ccc(C(=O)NCCCC[C@H](NC(=O)[C@H](Cc4ccc(N=[N+]=[N-])cc4)NC(=O)[C@H](Cc4ccc(N=[N+]=[N-])cc4)NC(=O)CCCNC(=O)[C@]4(Cc5cccc(Nc6nccs6)n5)CC[C@@H](Oc5cccc(Cl)c5F)CC4)C(N)=O)cc3C(=O)O)c3ccc(=[N+](C)C)cc-3oc2c1" , please.
8.72
